system: Escherichia coli TOP10; assay: shrunken log2 fold change of peptide-encoding DNA abundance (4.5 h post-induction vs induction); higher = less antimicrobial activity (less host growth inhibition); conditions: time post-induction: 4.5 h; library: site-saturation at positions 5, 18, 19, 20
assayEndpoint: shrunken log2 fold change
Give a plain numeric answer without units written out.

Q: Field: shrunken log2 fold change (Escherichia coli TOP10). Entry: RRIRLRPPRLPRPRPRPWISPRP
A: 0.0832

Q: One more sequence: RRIRGRPPRLPRPRPRPECQPRP
A: 0.381

Q: And for RRIRHRPPRLPRPRPRPTLPPRP ?
A: -0.00384

Q: Here is the next sequence: RRIRFRPPRLPRPRPRPRTAPRP
A: 0.162

Q: Same lookup for RRIRFRPPRLPRPRPRPLPCPRP , please.
A: -0.199

Q: Would you kindly repeat that for RRIRERPPRLPRPRPRPSVAPRP ?
A: 0.132

Q: Quick one: RRIRNRPPRLPRPRPRPGCIPRP
A: -0.173

Q: Try the sequence RRIRKRPPRLPRPRPRPTWFPRP
A: 0.203

Q: Lookup RRIRLRPPRLPRPRPRPKAVPRP
A: -0.0189

Q: Record: RRIRLRPPRLPRPRPRPNTHPRP
A: -0.473

Q: Continue with RRIRMRPPRLPRPRPRPCCQPRP
A: 0.212

Q: Thanks! And RRIRFRPPRLPRPRPRPGMLPRP ?
A: -0.169

Q: Record: RRIRCRPPRLPRPRPRPFMTPRP
A: -0.737

Q: Input RRIRCRPPRLPRPRPRPIVWPRP
A: 0.102

Q: Same thing, different sequence: RRIRQRPPRLPRPRPRPLGKPRP
A: -0.0227

Q: Now the sequence RRIRRRPPRLPRPRPRPYPMPRP
A: -0.187

Q: Would you kindly repeat that for RRIRWRPPRLPRPRPRPWTYPRP ?
A: -0.0122

Q: Another: RRIRTRPPRLPRPRPRPEQEPRP
A: -0.0113

Q: Field entry: RRIRDRPPRLPRPRPRPRIFPRP
A: -0.0459

Q: Ok, now RRIRMRPPRLPRPRPRPYVWPRP
A: -0.0956

Q: Now the sequence RRIRERPPRLPRPRPRPTDLPRP
A: 0.15

Q: Try RRIRYRPPRLPRPRPRPMSAPRP next.
A: -0.0208

* * *

system: Escherichia coli TOP10; experiment: shrunken log2 fold change of peptide-encoding DNA abundance (4.5 h post-induction vs induction); higher = less antimicrobial activity (less host growth inhibition); settings: time post-induction: 4.5 h; library: site-saturation at positions 5, 18, 19, 20
Tick true (1) if shrunken log2 fold change is -0.008 or greater. Tick false (0) if shrunken log2 fold change is less than -0.008.

Q: Say whether RRIRFRPPRLPRPRPRPNMVPRP shows shrunken log2 fold change of -0.008 or more.
A: false (0)

Q: And RRIRTRPPRLPRPRPRPMWQPRP ?
A: true (1)

Q: How about this sequence: RRIRRRPPRLPRPRPRPQLPPRP
A: true (1)

Q: Also need RRIRSRPPRLPRPRPRPWMKPRP , thanks.
A: true (1)

Q: Subsequent entry: RRIRARPPRLPRPRPRPPEFPRP
A: true (1)

Q: Another sequence: RRIRQRPPRLPRPRPRPGYQPRP
A: false (0)

Q: What about this sequence? RRIRFRPPRLPRPRPRPFSYPRP
A: false (0)

Q: Cool, now RRIRCRPPRLPRPRPRPSSGPRP
A: false (0)

Q: For RRIRSRPPRLPRPRPRPMVFPRP then?
A: true (1)

* * *

I'd be grateful if you could share measured shrunken log2 fold change for these entries.
test system: Escherichia coli TOP10; assay: shrunken log2 fold change of peptide-encoding DNA abundance (4.5 h post-induction vs induction); higher = less antimicrobial activity (less host growth inhibition); settings: time post-induction: 4.5 h; library: site-saturation at positions 5, 18, 19, 20
Could you respond with only the numeric value?

Q: Which value of shrunken log2 fold change has been reported for RRIRRRPPRLPRPRPRPENYPRP in the records?
A: 0.0652

Q: Now the sequence RRIRRRPPRLPRPRPRPLNCPRP
A: -0.304

Q: # repeat for RRIRTRPPRLPRPRPRPSLLPRP
A: -0.0532

Q: Item: RRIRHRPPRLPRPRPRPMSWPRP
A: -0.106

Q: Also RRIRYRPPRLPRPRPRPKPQPRP ?
A: -0.115

Q: Next sequence: RRIRKRPPRLPRPRPRPNEVPRP
A: -0.152

Q: Entry RRIRVRPPRLPRPRPRPEDGPRP please
A: -0.263

Q: Now consider RRIRHRPPRLPRPRPRPKIFPRP and answer again.
A: -0.0798

Q: // query: RRIRDRPPRLPRPRPRPMKTPRP
A: -0.00973

* * *

system: Escherichia coli TOP10; assay: shrunken log2 fold change of peptide-encoding DNA abundance (4.5 h post-induction vs induction); higher = less antimicrobial activity (less host growth inhibition); details: time post-induction: 4.5 h; library: site-saturation at positions 5, 18, 19, 20;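 further: peptides expressed intracellularly from a pBAD plasmid library in pooled LB shake-flask culture, induced with 0.3% L-arabinose, DNA abundance read by NGS, three biological replicates, DESeq2 with apeglm shrinkage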
assayEndpoint: shrunken log2 fold change
// keep it numeric: no unit symbol after the value

Q: Value lookup for shrunken log2 fold change; key = RRIRYRPPRLPRPRPRPVDRPRP
A: -0.126

Q: Cool, now RRIRVRPPRLPRPRPRPWQFPRP
A: -0.0175

Q: And what about the sequence RRIRGRPPRLPRPRPRPVEDPRP ?
A: 0.0393

Q: How about this sequence: RRIRWRPPRLPRPRPRPEVHPRP
A: -0.039

Q: What do you have for RRIRGRPPRLPRPRPRPGARPRP ?
A: 0.953

Q: And RRIRARPPRLPRPRPRPMWQPRP ?
A: -0.00908

Q: Then this sequence: RRIRIRPPRLPRPRPRPPNIPRP
A: -0.0703

Q: Let us now turn to RRIRVRPPRLPRPRPRPFPPPRP
A: -0.0462

Q: Same for RRIRFRPPRLPRPRPRPYLCPRP
A: -0.477

Q: Moving on to the next sequence: RRIRHRPPRLPRPRPRPNTDPRP
A: -0.438

Q: Likewise for RRIRHRPPRLPRPRPRPDGWPRP ?
A: 0.191

Q: Now try RRIRRRPPRLPRPRPRPEHWPRP .
A: 0.315

Q: Follow-up item: RRIRNRPPRLPRPRPRPELPPRP
A: -0.098

Q: Entry RRIRIRPPRLPRPRPRPYAIPRP please
A: -0.0122

Q: Entry to check: RRIRKRPPRLPRPRPRPQVHPRP
A: -0.161

Q: Param item: RRIRCRPPRLPRPRPRPEKHPRP
A: 0.00607

Q: Next record, please: RRIRFRPPRLPRPRPRPEMQPRP
A: 0.0943

Q: Okay, and RRIRQRPPRLPRPRPRPKKMPRP ?
A: -0.108

Q: Now the sequence RRIRCRPPRLPRPRPRPQMAPRP
A: -0.117

Q: Can you check RRIRIRPPRLPRPRPRPKEKPRP next?
A: 0.00643

Q: Repeat for the following sequence: RRIRQRPPRLPRPRPRPRFIPRP
A: -0.398

Q: And what about the sequence RRIRSRPPRLPRPRPRPCWSPRP ?
A: 0.0886

Q: Another sequence to look at: RRIRIRPPRLPRPRPRPVMTPRP
A: -0.166

Q: Next: RRIRKRPPRLPRPRPRPMTEPRP
A: 0.0103

Q: And for RRIRDRPPRLPRPRPRPDLTPRP ?
A: 0.00118

Q: Can you handle RRIRGRPPRLPRPRPRPKSWPRP next?
A: 0.925

Q: Consider next the sequence RRIRGRPPRLPRPRPRPSHAPRP in the same way.
A: 0.423

Q: Next: RRIRKRPPRLPRPRPRPWTHPRP
A: 0.0375

Q: Also RRIRTRPPRLPRPRPRPVSEPRP ?
A: 0.135

Q: Input RRIRMRPPRLPRPRPRPHTYPRP
A: -0.209

Q: Let us now turn to RRIRGRPPRLPRPRPRPWWPPRP
A: 0.404

Q: Here is the next sequence: RRIRPRPPRLPRPRPRPLACPRP
A: 0.265

Q: Now the sequence RRIRRRPPRLPRPRPRPRYCPRP
A: 0.216

Q: Then this sequence: RRIRARPPRLPRPRPRPQVRPRP
A: -0.0207

Q: Field entry: RRIRARPPRLPRPRPRPQFMPRP
A: 0.546

Q: Next record, please: RRIRRRPPRLPRPRPRPCSWPRP
A: -0.124

Q: Also RRIRYRPPRLPRPRPRPAPQPRP , if possible.
A: 0.416

Q: Entry to check: RRIRDRPPRLPRPRPRPDCWPRP
A: 1.65

Q: What do you have for RRIRYRPPRLPRPRPRPWLCPRP ?
A: -0.0909

Q: Also need RRIRLRPPRLPRPRPRPNPVPRP , thanks.
A: 0.0363

Q: Same lookup for RRIRVRPPRLPRPRPRPIDSPRP , please.
A: -0.0289

Q: How about this sequence: RRIRRRPPRLPRPRPRPCCDPRP
A: 0.583

Q: Please do the same for RRIRGRPPRLPRPRPRPQMYPRP as well.
A: 0.0854

Q: Thanks! And RRIRERPPRLPRPRPRPQSIPRP ?
A: -2.26

Q: Lookup RRIRLRPPRLPRPRPRPYGPPRP
A: -0.161

Q: # repeat for RRIRWRPPRLPRPRPRPGYTPRP
A: -0.13

Q: Another: RRIRLRPPRLPRPRPRPPQWPRP
A: 0.322

Q: Next record, please: RRIRIRPPRLPRPRPRPAPIPRP
A: -0.0266

Q: Could you do the same for RRIRHRPPRLPRPRPRPFRDPRP , please?
A: 0.0888

Q: Same question for RRIRCRPPRLPRPRPRPWIKPRP please.
A: -1.1

Q: Note, next up: RRIRRRPPRLPRPRPRPENFPRP
A: -0.0287

Q: Request: RRIRYRPPRLPRPRPRPHECPRP
A: 0.0244

Q: And then RRIRWRPPRLPRPRPRPCCSPRP , what is it?
A: -0.0402

Q: For RRIRIRPPRLPRPRPRPNHNPRP then?
A: -0.518

Q: Try the sequence RRIRVRPPRLPRPRPRPNVEPRP
A: -0.0461

Q: Next up: RRIRFRPPRLPRPRPRPNYVPRP
A: -0.492

Q: Moving on to the next sequence: RRIRIRPPRLPRPRPRPPPKPRP
A: 0.46

Q: How about RRIRHRPPRLPRPRPRPYHQPRP ?
A: -0.981

Q: Then RRIRRRPPRLPRPRPRPEEKPRP ?
A: -0.00133
